Assignment: determine reported nuclei count for the given compounds.
- procedureText: endothelial E-selectin expression blockers – imaging, HUVEC, immunofluorescence, MLSMR starter and 10KST1 sets, primary screen (AID 487);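 note: 100% = median nuclei count of all wells on the same plate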
- assayContext: HUVEC TNFalpha-induced E-selectin immunofluorescence imaging, at 2 µM; measured here: cell number, toxicity

compound	nuclei count
Cc1ccc(S(=O)(=O)N2CCOCC2)cc1C(=O)OCC(=O)N1CCc2ccccc2C1	132%
Cc1csc(NC(=O)c2sc3nc(-c4cccs4)ccc3c2N)n1	90.5%
COC(=O)c1[nH]c2ccccc2c1NC(=O)CN1CCC(C(N)=O)(N2CCCCC2)CC1	168%
CCOC(=O)C1=C(C)NC(=O)C(C#N)C1c1ccco1 (configuration not stated)	127%
COc1cccc2c(=O)c3c(cnn3C)n(C)c12	111%
Cc1ccc(S(=O)(=O)N2CCCC2)cc1S(=O)(=O)N1CCCC1	116%
CCn1c(SCC(=O)NCCc2ccc(Cl)cc2)nnc1-c1cccs1	106%
N#CCCCN1C(=O)C(O)(CC(=O)c2ccc3c(c2)OCCO3)c2ccccc21 (configuration not stated)	112%
O=c1oc(-c2ccco2)nc2ccccc12	132%
CCn1cc(C(=O)NCCN(C)CCc2ccccc2)c(=O)c2cc(S(=O)(=O)N(C)C)ccc21	110%

Kindly give each listed record's nuclei count.
1. Cc1ccc(NC(=O)c2oc3ccc(S(=O)(=O)N4CCOCC4)cc3c2C)cc1C
2. COc1ccccc1CNC(=O)C1CCN(S(=O)(=O)N2CCCCC2)CC1
3. COc1cc(OC)cc(-c2nc3nc(C)c(CCC(=O)O)c(C)n3n2)c1
4. C=CCn1c(=O)/c(=C/c2ccc(O)cc2)s/c1=C(/C#N)c1nnc2n1CCCCC2
5. CN(Cc1cccs1)c1ncnc2sccc12

1: 133%; 2: 89.6%; 3: 97.4%; 4: 116%; 5: 147%
